testedTarget: ALK4 (Homo sapiens)
Sequence (P36896 24-505): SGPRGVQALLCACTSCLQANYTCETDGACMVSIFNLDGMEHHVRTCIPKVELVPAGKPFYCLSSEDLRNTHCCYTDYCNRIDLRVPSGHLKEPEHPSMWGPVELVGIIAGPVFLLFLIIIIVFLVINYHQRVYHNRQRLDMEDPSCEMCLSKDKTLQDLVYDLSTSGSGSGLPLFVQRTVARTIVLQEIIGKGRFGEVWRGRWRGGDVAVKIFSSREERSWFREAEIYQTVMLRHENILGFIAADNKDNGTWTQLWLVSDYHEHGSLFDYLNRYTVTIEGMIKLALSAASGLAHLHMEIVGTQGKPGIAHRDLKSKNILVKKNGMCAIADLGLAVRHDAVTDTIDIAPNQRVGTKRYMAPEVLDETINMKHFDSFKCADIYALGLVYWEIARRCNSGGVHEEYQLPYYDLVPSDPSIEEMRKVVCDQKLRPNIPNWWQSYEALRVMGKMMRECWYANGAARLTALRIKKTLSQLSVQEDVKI
method: TR-FRET enzymatic ALK kinase assay, ALK4
endpointName: IC50

Any idea what its IC50 is? The compound is C[C@@H]1CNC[C@H](C)N1c1ccc(-c2cnc3c(-c4cccc(CO)c4)cnn3c2)cc1
> 10 µM

Fc1ccc(-c2cnn3cc(-c4ccc(CCN5CCCCC5)cc4)cnc23)cc1-c1nnn[nH]1 ?
> 10 µM

Let us now turn to CC(C)(CN1CCCCC1)Oc1ccc(-c2cnc3c(-c4cccc(S(C)(=O)=O)c4)cnn3c2)cc1
6 µM

Now the same for C[C@@H](O)c1cccc(-c2cnn3cc(-c4ccc(CCN5CCC(O)CC5)cc4)cnc23)c1
> 10 µM

Consider next the compound CC(C)(O)c1cccc(-c2cnn3cc(-c4ccc(CCN5CCCCC5)cc4)cnc23)c1 in the same way.
> 10 µM

Could you do the same for C[C@@H]1CNC[C@H](C)N1c1ccc(-c2cnc3c(-c4cc(N)cc5ccccc45)cnn3c2)cc1 , please?
6.1 µM

Same question for C[C@@H]1CNC[C@H](C)N1c1ccc(-c2cnc3c(-c4ccc([S+](N)(=O)[O-])c(C(F)(F)F)c4)cnn3c2)cc1 please.
> 10 µM

Another: CCNS(=O)(=O)c1cccc(-c2cnn3cc(-c4ccc(N5[C@H](C)CNC[C@@H]5C)cc4)cnc23)c1
4.3 µM

Let us now turn to NC1(c2ccc(-c3cnc4c(-c5ccc(S(N)(=O)=O)c6ccccc56)cnn4c3)cc2)CNC1
> 10 µM

Provenance of the data: patent US10513521B2
